- EXPERIMENTAL_SYSTEM: T1, Clostridium difficile toxin B (TcdB) (Clostridium difficile, UniProt P18177 2-2366)
- T1 construct: also called TcdB toxin
- T1 sequence (P18177 2-2366 limits assumed): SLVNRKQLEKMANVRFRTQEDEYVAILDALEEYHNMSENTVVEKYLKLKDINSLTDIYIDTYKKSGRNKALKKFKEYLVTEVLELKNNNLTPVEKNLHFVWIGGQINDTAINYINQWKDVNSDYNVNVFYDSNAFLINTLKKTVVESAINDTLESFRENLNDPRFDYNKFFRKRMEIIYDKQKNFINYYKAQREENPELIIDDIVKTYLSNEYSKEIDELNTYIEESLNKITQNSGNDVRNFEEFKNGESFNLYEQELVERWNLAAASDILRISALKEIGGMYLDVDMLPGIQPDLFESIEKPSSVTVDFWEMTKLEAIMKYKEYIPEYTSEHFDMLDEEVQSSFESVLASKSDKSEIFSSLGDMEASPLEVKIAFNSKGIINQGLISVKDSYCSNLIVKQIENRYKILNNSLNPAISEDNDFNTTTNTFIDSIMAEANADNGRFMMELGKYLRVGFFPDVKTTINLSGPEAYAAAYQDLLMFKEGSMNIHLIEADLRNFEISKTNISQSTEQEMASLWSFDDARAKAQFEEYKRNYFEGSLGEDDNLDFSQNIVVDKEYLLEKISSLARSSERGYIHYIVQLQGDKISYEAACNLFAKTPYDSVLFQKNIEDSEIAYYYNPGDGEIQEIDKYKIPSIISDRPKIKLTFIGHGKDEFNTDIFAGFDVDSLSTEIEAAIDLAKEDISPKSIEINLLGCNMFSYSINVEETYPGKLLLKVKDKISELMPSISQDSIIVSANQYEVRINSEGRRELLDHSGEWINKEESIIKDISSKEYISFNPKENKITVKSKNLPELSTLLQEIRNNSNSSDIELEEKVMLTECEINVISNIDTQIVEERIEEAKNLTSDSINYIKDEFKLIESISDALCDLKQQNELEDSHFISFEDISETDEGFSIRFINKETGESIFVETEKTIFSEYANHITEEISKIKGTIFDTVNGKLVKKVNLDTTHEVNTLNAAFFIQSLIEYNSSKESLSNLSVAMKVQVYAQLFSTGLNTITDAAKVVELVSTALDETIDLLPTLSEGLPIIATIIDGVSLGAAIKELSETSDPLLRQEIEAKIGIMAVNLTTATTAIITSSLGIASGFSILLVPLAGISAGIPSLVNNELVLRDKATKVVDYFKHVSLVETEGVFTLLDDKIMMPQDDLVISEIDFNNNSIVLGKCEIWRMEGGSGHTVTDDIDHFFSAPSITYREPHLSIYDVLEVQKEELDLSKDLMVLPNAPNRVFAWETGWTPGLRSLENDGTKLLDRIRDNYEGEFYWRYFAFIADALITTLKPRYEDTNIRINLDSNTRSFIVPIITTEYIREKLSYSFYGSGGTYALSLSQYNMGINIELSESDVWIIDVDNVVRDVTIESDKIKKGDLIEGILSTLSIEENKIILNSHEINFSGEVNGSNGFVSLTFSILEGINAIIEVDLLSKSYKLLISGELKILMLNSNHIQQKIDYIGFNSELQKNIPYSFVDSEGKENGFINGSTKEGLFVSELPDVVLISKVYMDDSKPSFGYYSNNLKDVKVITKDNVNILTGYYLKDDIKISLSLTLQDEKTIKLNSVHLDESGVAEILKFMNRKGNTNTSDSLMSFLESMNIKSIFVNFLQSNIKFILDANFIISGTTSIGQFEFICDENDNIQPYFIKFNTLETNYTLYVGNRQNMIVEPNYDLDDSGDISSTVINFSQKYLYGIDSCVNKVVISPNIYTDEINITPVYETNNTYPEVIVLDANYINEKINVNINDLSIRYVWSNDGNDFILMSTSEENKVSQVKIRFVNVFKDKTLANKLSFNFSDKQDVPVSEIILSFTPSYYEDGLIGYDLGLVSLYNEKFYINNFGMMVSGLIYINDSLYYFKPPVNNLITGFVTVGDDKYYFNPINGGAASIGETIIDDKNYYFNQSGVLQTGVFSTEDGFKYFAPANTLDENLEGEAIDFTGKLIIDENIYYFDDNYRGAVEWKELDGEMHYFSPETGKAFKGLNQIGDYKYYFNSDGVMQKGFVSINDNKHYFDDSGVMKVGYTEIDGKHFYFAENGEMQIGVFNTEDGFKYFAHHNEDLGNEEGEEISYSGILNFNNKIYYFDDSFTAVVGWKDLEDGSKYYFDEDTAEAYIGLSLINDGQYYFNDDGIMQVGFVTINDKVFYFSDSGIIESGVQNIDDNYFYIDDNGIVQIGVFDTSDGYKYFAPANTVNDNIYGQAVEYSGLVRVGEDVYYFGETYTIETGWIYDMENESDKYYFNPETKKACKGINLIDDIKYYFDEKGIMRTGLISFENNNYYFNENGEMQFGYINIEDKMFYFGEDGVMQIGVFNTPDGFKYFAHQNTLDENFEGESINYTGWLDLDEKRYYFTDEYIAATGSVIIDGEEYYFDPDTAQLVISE
- TEST_NAME: method not stated

- BINDER: "anti-TcdB VHH C6 (VHH) VHH: VQLVESGGGLVQAGESLRLSCVVSESIFRINTMGWYRQTPGKQREVVARITLRNSTTYADSVKGRFTISRDDAKNTLYLKMDSLKPEDTAVYYCHRYPLIFRNSPYWGQGTQVTVSS"
  VALUE_UNITS: "pM"
  Kd: 890
- BINDER: "anti-TcdB VHH 5D (VHH) VHH: QVQLVESGGGLVQPGGSLRLSCEASGFTLDYYGIGWFRQPPGKEREAVSYISASARTILYADSVKGRFTISRDNAKNAVYLQMNSLKREDTAVYYCARRRFSASSVNRWLADDYDVWGRGTQVAVSS"
  VALUE_UNITS: "pM"
  Kd: 650
- BINDER: "anti-TcdB VHH 7F (VHH) VHH: QVQLVESGGGLVEAGGSLRLSCVVTGSSFSTSTMAWYRQPPGKQREWVASFTSGGAIKYTDSVKGRFTMSRDNAKKMTYLQMENLKPEDTAVYYCALFINAVSGSSWGRGTQVTVSS"
  VALUE_UNITS: "pM"
  Kd: 8800
- BINDER: "anti-TcdB VHH E3 (VHH) VHH: QVQLVESGGGLVQTGGSLRLSCASSGSIAGFETVTWSRQAPGKSLQWVASMTKTNNEIYSDSVKGRFIISRDNAKNTVYLQMNSLKPEDTGVYFCKGPELRGQGIQVTVSSEPKTPKPQ"
  VALUE_UNITS: "pM"
  Kd: 30
- BINDER: "anti-TcdB VHH B12 (VHH) VHH: VQLVESGGGLVQAGDSLTLSCAASESTFNTFSMAWFRQAPGKEREYVAAFSRSGGTTNYADSVKGRATISTDNAKNTVYLHMNSLKPEDTAVYFCAADRPAGRAYFQSRSYNYWGQGTQVTVSS"
  VALUE_UNITS: "pM"
  Kd: 70
